test-protocol: Oral bioavailability and tissue distribution
Type: in vivo, mouse
test-settings: male, mouse, plasma, oral; 50 mg/kg p.o., 20 min, C57BL6/J; read-out: plasma level
property-label: concentration at 20 min (µM)
Numbers only, in µM.

QUERY: Input "CCCCCCC/C=C/C=C/C(=O)NCCc1ccc(OC)c(OC)c1" , output reported concentration at 20 min.
RESULT: 1.73

---

system-name: CB2 receptor (Homo sapiens)
Sequence (P34972 whole entry): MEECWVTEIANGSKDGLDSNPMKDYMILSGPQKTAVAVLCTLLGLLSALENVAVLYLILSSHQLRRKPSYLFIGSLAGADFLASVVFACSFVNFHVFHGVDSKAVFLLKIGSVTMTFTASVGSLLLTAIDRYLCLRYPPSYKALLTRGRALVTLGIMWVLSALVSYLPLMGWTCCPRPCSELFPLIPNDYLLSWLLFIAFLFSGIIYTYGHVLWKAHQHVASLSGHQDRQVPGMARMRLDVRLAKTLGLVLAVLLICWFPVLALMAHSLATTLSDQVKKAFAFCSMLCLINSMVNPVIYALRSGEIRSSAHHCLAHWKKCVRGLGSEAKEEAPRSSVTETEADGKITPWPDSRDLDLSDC
property-label: pKi
Give bare numbers, as −log10 of the molar value.

QUERY: Input "CCCCCCC/C=C/C=C/C(=O)NCCc1ccc(OC)c(OC)c1" , output reported pKi.
RESULT: 4.32

// provenance: patent US10414721B1
